# TARGET_OF_ASSAY: T1, human IGF2^1-67 (mature insulin-like growth factor 2) (human, UniProt P01344 25-91, biotinylated (site not stated) where immobilised on the chip (Tables 1-4))
# T1 construct: mature; also called mature IGF2; biotinylated IGF2
# MEASUREMENT_NOTES: SPR kinetic, biotin-IGF2 on chip, pH 7.4
RECORDED_METRIC: koff (s⁻¹)
Value expressed in s⁻¹; do not type the unit.

Guide cases for koff, answers given:
- BINDER: "domain 11^AB5 Q1569R P1597H K1631W (receptor, See m5) MKSNEHDDCQVTNPSTGHLFDLSSLSGRAGFTAAYAKGWGVYMSICGENENCPPGVGACFGRTRISVGKANKRLRYVDQVLQLVYKDGSHCPSKSGLSYKSVISFVCRPEAGPTNRPMLISLDWQTCTLFFSWHTPLACEQATECSV"
  RECORDED_MEASUREMENT: 0.0115
- BINDER: "domain 11^AB5 P1597H S1602H (receptor, See m5) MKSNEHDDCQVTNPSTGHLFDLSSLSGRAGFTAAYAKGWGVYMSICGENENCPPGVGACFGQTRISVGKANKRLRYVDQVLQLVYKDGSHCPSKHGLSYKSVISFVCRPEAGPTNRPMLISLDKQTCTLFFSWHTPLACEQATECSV"
  RECORDED_MEASUREMENT: 0.0046
- BINDER: "IGF2R domain 11^AB3 (receptor, His6-tagged soluble domain 11; also called domain 11^E1544K, K1545S, L1547V; 1542YSKSGV1547) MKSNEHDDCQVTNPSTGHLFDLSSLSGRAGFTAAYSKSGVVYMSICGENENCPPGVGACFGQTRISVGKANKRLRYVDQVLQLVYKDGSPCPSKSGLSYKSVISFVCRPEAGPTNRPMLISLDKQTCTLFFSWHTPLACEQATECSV"
  RECORDED_MEASUREMENT: 0.044

Turning now to a further binder:
**Query** Form field: reported koff of domain 11^AB3 P1597H (receptor, See m5; also called AB3 + 62B (FG-P1597H)) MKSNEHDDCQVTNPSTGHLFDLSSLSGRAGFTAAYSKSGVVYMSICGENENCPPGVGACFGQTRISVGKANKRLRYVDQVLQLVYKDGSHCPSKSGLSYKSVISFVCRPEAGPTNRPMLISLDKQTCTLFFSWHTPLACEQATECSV
**Result** 0.013
